tested on: SW620 (Colorectal Carcinoma); assay: combination Emax (second highest fraction inhibited in the dose matrix, 72 h); higher = more inhibition; extreme values may be limits of the assay
Label MET when combination Emax >= 0.7; otherwise NOT MET.

[[record]]
molecule = "Cn1cnc2c(F)c(Nc3ccc(Br)cc3Cl)c(C(=O)NOCCO)cc21 [Selumetinib] + CC(C)n1c(=O)n(C)c2cnc3cc(F)c(-c4ccc(OCCCN5CCCCC5)nc4)cc3c21 [AZD1390] (first compound max 10 µM, 7x7, partner max 0.3 µM)"
assigned_category = "NOT MET"

[[record]]
molecule = "Cc1cc2ncnn2cc1Nc1ncc2c(n1)n(C1CCOCC1)c(=O)n2C [AZD7648] + CN(C)CCCOc1ccc(-c2ccc3ncc4c(c3c2)n(C2CCOCC2)c(=O)n4C)cn1 [AZD0156] (first compound max 10 µM, 7x7, partner max 1 µM)"
assigned_category = "NOT MET"

[[record]]
molecule = "Cc1c2c(nn1C)CSCc1cc(n(C)n1)CSc1cc(c3ccccc3c1)OCCCc1c(C(=O)O)n(C)c3c-2c(Cl)ccc13 [AZD5991] + C=CCn1c(=O)c2cnc(Nc3ccc(N4CCN(C)CC4)cc3)nc2n1-c1cccc(C(C)(C)O)n1 [AZD1775] (first compound max 1 µM, partner max 1 µM)"
assigned_category = "NOT MET"

[[record]]
molecule = "Cc1cc2ncnn2cc1Nc1ncc2c(n1)n(C1CCOCC1)c(=O)n2C [AZD7648] + COc1cc([C@@H]2c3cc4c(cc3[C@@H](O[C@@H]3O[C@@H]5CO[C@@H](C)O[C@H]5[C@H](O)[C@H]3O)[C@H]3COC(=O)[C@H]23)OCO4)cc(OC)c1O [Etoposide] (first compound max 10 µM, 7x7, partner max 10 µM)"
assigned_category = "MET"

[[record]]
molecule = "CC(=O)Nc1cccc(-n2c(=O)n(C3CC3)c(=O)c3c(Nc4ccc(I)cc4F)n(C)c(=O)c(C)c32)c1 [Trametinib] + Cc1nc(-c2cn3c(n2)-c2ccc(-c4cnn(C(C)(C)C(N)=O)c4)cc2OCC3)n(C(C)C)n1 [Taselisib] (first compound max 1 µM, 7x7, partner max 10 µM)"
assigned_category = "MET"

[[record]]
molecule = "COc1nnc2ccc(N3CCC(c4ccc(OCCN5CCN(C)C(=O)[C@H]5C)cc4)CC3)nn12 [AZD5153] + CC1(C)CCC(CN2CCN(c3ccc(C(=O)NS(=O)(=O)c4ccc(NCC5CCOCC5)c([N+](=O)[O-])c4)c(Oc4cnc5[nH]ccc5c4)c3)CC2)=C(c2ccc(Cl)cc2)C1 [Venetoclax] (first compound max 1 µM, 7x7, partner max 1 µM)"
assigned_category = "NOT MET"


* * *

test system: KP-N-YN (Neuroblastoma); experiment: Bliss excess, mean over the matrix (fraction); higher = more synergy
Reported Metric: Bliss excess

[[record]]
compound = "Cn1cnc2c(F)c(Nc3ccc(Br)cc3Cl)c(C(=O)NOCCO)cc21 [Selumetinib] + C=CCn1c(=O)c2cnc(Nc3ccc(N4CCN(C)CC4)cc3)nc2n1-c1cccc(C(C)(C)O)n1 [AZD1775] (first compound max 10 µM, partner max 1 µM)"
reported_metric = "Bliss excess"
observed_result = -0.0751

[[record]]
compound = "COc1cccc(OCCCN)c1-c1cc(Nc2cnc(C#N)cn2)n[nH]1 [Prexasertib] + C=CCn1c(=O)c2cnc(Nc3ccc(N4CCN(C)CC4)cc3)nc2n1-c1cccc(C(C)(C)O)n1 [AZD1775] (first compound max 1 µM, partner max 1 µM)"
reported_metric = "Bliss excess"
observed_result = 0.0385

[[record]]
compound = "COc1cccc(OCCCN)c1-c1cc(Nc2cnc(C#N)cn2)n[nH]1 [Prexasertib] + O=C(c1cc(Cc2n[nH]c(=O)c3ccccc23)ccc1F)N1CCN(C(=O)C2CC2)CC1 [Olaparib] (first compound max 1 µM, 7x7, partner max 10 µM)"
reported_metric = "Bliss excess"
observed_result = -0.245

[[record]]
compound = "NC1(C(=O)N[C@@H](CCO)c2ccc(Cl)cc2)CCN(c2ncnc3[nH]ccc23)CC1 [Capivasertib] + CCN(CCO)CCCOc1ccc2c(Nc3cc(CC(=O)Nc4cccc(F)c4)[nH]n3)ncnc2c1 [AZD2811] (first compound max 10 µM, 7x7, partner max 1 µM)"
reported_metric = "Bliss excess"
observed_result = -0.0515


* * *

tested on: A101D (Melanoma); assay: combination Emax (second highest fraction inhibited in the dose matrix, 72 h); higher = more inhibition; extreme values may be limits of the assay
Overview of reported combination Emax across a group of compounds:
Reported Metric: combination Emax

[[record]]
compound = "Cc1cc2ncnn2cc1Nc1ncc2c(n1)n(C1CCOCC1)c(=O)n2C [AZD7648] + O=C(c1cc(Cc2n[nH]c(=O)c3ccccc23)ccc1F)N1CCN(C(=O)C2CC2)CC1 [Olaparib] (first compound max 10 µM, 7x7, partner max 10 µM)"
observed_result = 0.261

[[record]]
compound = "CC1(C)CCC(CN2CCN(c3ccc(C(=O)NS(=O)(=O)c4ccc(NCC5CCOCC5)c([N+](=O)[O-])c4)c(Oc4cnc5[nH]ccc5c4)c3)CC2)=C(c2ccc(Cl)cc2)C1 [Venetoclax] + C[C@@H]1COCCN1C2=NC(=NC(=C2)C3(CC3)[S@](=N)(=O)C)C4=C5C=CNC5=NC=C4 [AZD6738] (first compound max 1 µM, 7x7, partner max 10 µM)"
observed_result = 0.91


* * *

system: A204 (Rhabdomyosarcoma); test: combination Emax (second highest fraction inhibited in the dose matrix, 72 h); higher = more inhibition; extreme values may be limits of the assay
Reported Metric: combination Emax

[[record]]
compound = "Cc1c2c(nn1C)CSCc1cc(n(C)n1)CSc1cc(c3ccccc3c1)OCCCc1c(C(=O)O)n(C)c3c-2c(Cl)ccc13 [AZD5991] + CN(C)CCCOc1ccc(-c2ccc3ncc4c(c3c2)n(C2CCOCC2)c(=O)n4C)cn1 [AZD0156] (first compound max 1 µM, 7x7, partner max 1 µM)"
observed_result = 0.729

[[record]]
compound = "CN(CCO)CC[C@H](CSc1ccccc1)Nc1ccc(S(=O)(=O)NC(=O)c2ccc(N3CCC([C@@H](O)c4ccccc4-c4ccc(Cl)cc4)CC3)cc2)cc1S(=O)(=O)C(F)(F)F [AZD4320] + CCN(CCO)CCCOc1ccc2c(Nc3cc(CC(=O)Nc4cccc(F)c4)[nH]n3)ncnc2c1 [AZD2811] (first compound max 1 µM, 7x7, partner max 1 µM)"
observed_result = 0.261

[[record]]
compound = "Cn1cnc2c(F)c(Nc3ccc(Br)cc3Cl)c(C(=O)NOCCO)cc21 [Selumetinib] + CCN(CCO)CCCOc1ccc2c(Nc3cc(CC(=O)Nc4cccc(F)c4)[nH]n3)ncnc2c1 [AZD2811] (first compound max 10 µM, 7x7, partner max 1 µM)"
observed_result = 0.286

[[record]]
compound = "CC1(C)CCC(CN2CCN(c3ccc(C(=O)NS(=O)(=O)c4ccc(NCC5CCOCC5)c([N+](=O)[O-])c4)c(Oc4cnc5[nH]ccc5c4)c3)CC2)=C(c2ccc(Cl)cc2)C1 [Venetoclax] + C=CCn1c(=O)c2cnc(Nc3ccc(N4CCN(C)CC4)cc3)nc2n1-c1cccc(C(C)(C)O)n1 [AZD1775] (first compound max 1 µM, partner max 1 µM)"
observed_result = 0.325

[[record]]
compound = "CN(CCO)CC[C@H](CSc1ccccc1)Nc1ccc(S(=O)(=O)NC(=O)c2ccc(N3CCC([C@@H](O)c4ccccc4-c4ccc(Cl)cc4)CC3)cc2)cc1S(=O)(=O)C(F)(F)F [AZD4320] + C1CN(CCC1(C(=O)N[C@@H](CCO)C2=CC=C(C=C2)Cl)N)C3=NC=NC4=C3C=CN4 [Capivasertib] (first compound max 1 µM, 7x7, partner max 3 µM)"
observed_result = 0.266

[[record]]
compound = "Cc1c2c(nn1C)CSCc1cc(n(C)n1)CSc1cc(c3ccccc3c1)OCCCc1c(C(=O)O)n(C)c3c-2c(Cl)ccc13 [AZD5991] + C=CCn1c(=O)c2cnc(Nc3ccc(N4CCN(C)CC4)cc3)nc2n1-c1cccc(C(C)(C)O)n1 [AZD1775] (first compound max 1 µM, partner max 1 µM)"
observed_result = 0.829


* * *

tested on: TE-10 (Esophageal Squamous Cell Carcinoma); assay: Bliss excess, mean over the matrix (fraction); higher = more synergy
Overview of reported Bliss excess across a group of molecules:
Reported Metric: Bliss excess

[[record]]
molecule = "Cc1c2c(nn1C)CSCc1cc(n(C)n1)CSc1cc(c3ccccc3c1)OCCCc1c(C(=O)O)n(C)c3c-2c(Cl)ccc13 [AZD5991] + CN(C)CCCOc1ccc(-c2ccc3ncc4c(c3c2)n(C2CCOCC2)c(=O)n4C)cn1 [AZD0156] (first compound max 1 µM, 7x7, partner max 1 µM)"
reported_metric = "Bliss excess"
observed_result = -0.055

[[record]]
molecule = "CC1(C)CCC(CN2CCN(c3ccc(C(=O)NS(=O)(=O)c4ccc(NCC5CCOCC5)c([N+](=O)[O-])c4)c(Oc4cnc5[nH]ccc5c4)c3)CC2)=C(c2ccc(Cl)cc2)C1 [Venetoclax] + Cc1cc2ncnn2cc1Nc1ncc2c(n1)n(C1CCOCC1)c(=O)n2C [AZD7648] (first compound max 1 µM, 7x7, partner max 10 µM)"
reported_metric = "Bliss excess"
observed_result = -0.0068

[[record]]
molecule = "Cc1c2c(nn1C)CSCc1cc(n(C)n1)CSc1cc(c3ccccc3c1)OCCCc1c(C(=O)O)n(C)c3c-2c(Cl)ccc13 [AZD5991] + Cc1cc2ncnn2cc1Nc1ncc2c(n1)n(C1CCOCC1)c(=O)n2C [AZD7648] (first compound max 1 µM, 7x7, partner max 10 µM)"
reported_metric = "Bliss excess"
observed_result = -0.0057

[[record]]
molecule = "Cc1cc2ncnn2cc1Nc1ncc2c(n1)n(C1CCOCC1)c(=O)n2C [AZD7648] + CN(C)CCCOc1ccc(-c2ccc3ncc4c(c3c2)n(C2CCOCC2)c(=O)n4C)cn1 [AZD0156] (first compound max 10 µM, 7x7, partner max 1 µM)"
reported_metric = "Bliss excess"
observed_result = -0.0023

